% inhibition of SMAD7 mRNA expression listing for selected substances.
# System: human SMAD7 mRNA
# PROTOCOL TEXT: Antisense inhibition of human SMAD7 mRNA expression in Hep3B cells by 5-10-5 MOE gapmers, single concentration, electroporation, RT-PCR (Example 1, Study 1 and 2)
# Type: cell-based
# MEASUREMENT SETUP: electroporation, 15,000 nM antisense oligonucleotide (Study 2), 5-10-5 MOE gapmers targeting SEQ ID NO: 1 and 2
Strand notation (5' to 3'): a small letter for the sugar, then the base; units joined by * are phosphorothioate-linked, units joined directly phosphodiester-linked; [ ] holds rarer units or linkages, { } end groups; capitals alone tell only the bases. e = 2'-O-(2-methoxyethyl) (MOE); [5mC] = 5-methylcytosine; d = 2'-deoxy (DNA)

# SUBSTANCE, UNIT OF MEASUREMENT, % inhibition of SMAD7 mRNA expression
records = [
    ("771864 (antisense eA*eG*eA*e[5mC]*eA*dA*dA*dG*dA*dT*d[5mC]*dA*d[5mC]*dA*dG*eA*eT*e[5mC]*eA*e[5mC]) [compound 771864]", "%", 0),
    ("771561 (antisense e[5mC]*eA*e[5mC]*eT*e[5mC]*d[5mC]*dT*dG*dA*d[5mC]*dA*dA*dG*dT*dG*eA*eA*eA*eT*eG) [compound 771561]", "%", 30),
    ("771817 (antisense eG*eG*eA*eA*eT*dT*dA*dT*dG*dA*d[5mC]*dA*d[5mC]*dA*dG*eT*eA*eA*e[5mC]*eA) [compound 771817]", "%", 19),
    ("771729 (antisense eT*eG*e[5mC]*eT*e[5mC]*d[5mC]*dA*dG*d[5mC]*dT*d[5mC]*d[5mC]*dA*dG*dA*e[5mC]*e[5mC]*eT*eG*eG) [compound 771729]", "%", 35),
    ("771538 (antisense eT*eT*eT*e[5mC]*eT*d[5mC]*dA*dA*dA*dG*dA*dG*d[5mC]*dG*dA*eA*eA*e[5mC]*eA*eA) [compound 771538]", "%", 24),
    ("771347 (antisense eT*eG*eG*eG*e[5mC]*d[5mC]*dA*d[5mC]*dT*dG*dG*dT*dG*dT*dT*e[5mC]*eG*eA*e[5mC]*eG) [compound 771347]", "%", 0),
    ("771889 (antisense eT*eA*eA*eG*eA*dG*d[5mC]*dA*dT*dT*dT*dA*dT*d[5mC]*dT*e[5mC]*eG*e[5mC]*e[5mC]*eA) [compound 771889]", "%", 29),
    ("771810 (antisense eG*eG*e[5mC]*eA*e[5mC]*dT*dG*d[5mC]*dA*dG*dA*dA*dG*dA*dG*eG*e[5mC]*eG*eG*eG) [compound 771810]", "%", 46),
    ("771834 (antisense eA*eA*e[5mC]*eA*eT*dA*dA*dA*dG*dT*dT*d[5mC]*dT*d[5mC]*dA*eA*eA*e[5mC]*eA*eG) [compound 771834]", "%", 25),
    ("771874 (antisense eA*eT*eT*eA*e[5mC]*dT*dT*d[5mC]*dT*dG*dT*d[5mC]*dT*dG*d[5mC]*e[5mC]*eT*e[5mC]*e[5mC]*eG) [compound 771874]", "%", 34),
    ("771888 (antisense eT*e[5mC]*eG*e[5mC]*e[5mC]*dA*dT*dG*dG*dA*dG*dA*dA*dT*dG*eT*eA*eA*eT*eT) [compound 771888]", "%", 0),
]

---

# System: dog SMAD7 mRNA
# PROTOCOL TEXT: Pharmacology: dog SMAD7 mRNA expression in liver, kidney, duodenum, ileum and colon after subcutaneous administration in beagle dogs (Example 8)
# Format: in vivo
# MEASUREMENT SETUP: 30 mg/kg subcutaneous, necropsy, proximal colon, normalized to HPRT1
The threshold is inclusive: % inhibition of SMAD7 mRNA expression (compared to control), Proximal colon of exactly 30% counts as Y; values below receive N.

# SUBSTANCE, SYSTEM UNDER TEST, ASSIGNED LABEL
measured = [
    ("830025 (antisense TTTGTAAATCGAAAGC; 3-10-3 cEt gapmer, further chemistry not given here) [compound 830025]", "dog SMAD7 mRNA", "N"),
    ("790615 (CCAATGAGAATGCTTC; 3-10-3 cEt gapmer, further chemistry not given here) [compound 790615]", "dog SMAD7 mRNA", "Y"),
    ("830121 (AGAATCAAGCCCTGGC; 3-10-3 cEt gapmer, further chemistry not given here) [compound 830121]", "dog SMAD7 mRNA", "N"),
    ("830037 (antisense CTATTGGCTGATCTGG; 3-10-3 cEt gapmer, further chemistry not given here) [compound 830037]", "dog SMAD7 mRNA", "Y"),
    ("829994 (GGAGGCAGGGCCGCGA; 3-10-3 cEt gapmer, further chemistry not given here) [compound 829994]", "dog SMAD7 mRNA", "Y"),
    ("798781 (CGTAAGATTCACAGCA; 3-10-3 cEt gapmer, further chemistry not given here) [compound 798781]", "dog SMAD7 mRNA", "N"),
]

---

pIC50 listing for selected substances.
# System: human SMAD7 mRNA
# PROTOCOL TEXT: Dose-dependent inhibition of human SMAD7 mRNA expression in Hep3B cells, comparison with ION 28453 (Example 4)
# Assay type: cell-based
# MEASUREMENT SETUP: electroporation, approximately 16 hours, SMAD7 mRNA
# Experimental: Cells were plated at a density of 20,000 cells per well and transfected using electroporation with 0.25 μM, 0.74 μM, 2.22 μM, 6.67 μM, or 20.00 μM concentrations of antisense oligonucleotide, as specified in the Tables below. After a treatment period of approximately 16 hours, RNA was isolated from the cells and SMAD7 mRNA levels were measured by quantitative real-time PCR. […] SMAD7 mRNA levels were adjusted according to total RNA content, as measured by RIBOGREEN®. […]
pIC50: −log10 of the molar value. Strand notation (5' to 3'): a small letter for the sugar, then the base; units joined by * are phosphorothioate-linked, units joined directly phosphodiester-linked; [ ] holds rarer units or linkages, { } end groups; capitals alone tell only the bases. k = constrained ethyl (cEt); [5mC] = 5-methylcytosine; d = 2'-deoxy (DNA)
OUTCOME MEASURE: pIC50

# SUBSTANCE, SYSTEM UNDER TEST, OUTCOME MEASURE, MEASURED VALUE
measured = [
    ("799184 (antisense kA*kA*k[5mC]*d[5mC]*dT*dT*dT*dG*dT*dA*dG*dT*dT*kA*kG*kA) [compound 799184]", "human SMAD7 mRNA", "pIC50", 5.22),
    ("798781 (CGTAAGATTCACAGCA; 3-10-3 cEt gapmer, further chemistry not given here) [compound 798781]", "human SMAD7 mRNA", "pIC50", 5.70),
    ("801051 (antisense kG*kT*kG*dT*dT*d[5mC]*dA*dA*d[5mC]*dA*dA*dT*dG*k[5mC]*kT*kT) [compound 801051]", "human SMAD7 mRNA", "pIC50", 5.40),
    ("800821 (antisense kG*k[5mC]*kT*dA*dA*dA*dT*dT*dT*d[5mC]*d[5mC]*dA*dA*kT*kG*kA) [compound 800821]", "human SMAD7 mRNA", "pIC50", 5.40),
    ("801040 (antisense kG*kT*k[5mC]*dA*dT*dG*dA*dA*dA*dG*dA*dT*dT*k[5mC]*kT*kT) [compound 801040]", "human SMAD7 mRNA", "pIC50", 6.00),
]

---

# PROTOCOL TEXT: Hematology assays after subcutaneous administration in beagle dogs (Example 8)
# Type: in vivo
# MEASUREMENT SETUP: 30 mg/kg subcutaneous days 1, 3, 5, 8, 15, 22, 29
OUTCOME MEASURE: Reticulocytes (%)

# SUBSTANCE, OUTCOME MEASURE, MEASURED VALUE
rows = [
    ("798781 (CGTAAGATTCACAGCA; 3-10-3 cEt gapmer, further chemistry not given here) [compound 798781]", "Reticulocytes", 0.6),
    ("790615 (CCAATGAGAATGCTTC; 3-10-3 cEt gapmer, further chemistry not given here) [compound 790615]", "Reticulocytes", 0.7),
    ("829994 (GGAGGCAGGGCCGCGA; 3-10-3 cEt gapmer, further chemistry not given here) [compound 829994]", "Reticulocytes", 0.9),
    ("830121 (AGAATCAAGCCCTGGC; 3-10-3 cEt gapmer, further chemistry not given here) [compound 830121]", "Reticulocytes", 0.5),
    ("830025 (antisense TTTGTAAATCGAAAGC; 3-10-3 cEt gapmer, further chemistry not given here) [compound 830025]", "Reticulocytes", 1.2),
    ("830037 (antisense CTATTGGCTGATCTGG; 3-10-3 cEt gapmer, further chemistry not given here) [compound 830037]", "Reticulocytes", 0.3),
]
